Entry source: patent US11795460B2

- Test system: TTR
- test: TTR editing in primary human hepatocytes transfected with Spy Cas9 mRNA and sgRNAs (Table 13)
- Type: cell-based
- details: primary human hepatocytes co-transfected with Spy Cas9 mRNA (SEQ ID NO:2) and sgRNAs, 12.5 nM
Strand notation (5' to 3'): a small letter for the sugar, then the base; units joined by * are phosphorothioate-linked, units joined directly phosphodiester-linked; [ ] holds rarer units or linkages, { } end groups; capitals alone tell only the bases. m = 2'-O-methyl; r = 2'-OH (RNA)
For each of the molecules below, state its Avg % Deletion.
Report the value in % with no unit label.

// query Which Avg % Deletion value is on record for G000572: TTR sgRNA modified sequence, Human, SEQ ID No. 113; guide sequence of CR003385 (nucleic acid) guide: mC*mC*mC*rCrUrArCrUrCrCrUrArUrUrCrCrArCrCrArGrUrUrUrUrArGrAmGmCmUmAmGmAmAmAmUmAmGmCrArArGrUrUrArArArArUrArArGrGrCrUrArGrUrCrCrGrUrUrArUrCrAmAmCmUmUmGmAmAmAmAmAmGmUmGmGmCmAmCmCmGmAmGmUmCmGmGmUmGmCmU*mU*mU*mU ?
// result 13.85

// query # repeat for G000486: TTR sgRNA modified sequence, Human, SEQ ID No. 93; guide sequence of CR003339 (nucleic acid) guide: mA*mC*mA*rCrArArArUrArCrCrArGrUrCrCrArGrCrArGrUrUrUrUrArGrAmGmCmUmAmGmAmAmAmUmAmGmCrArArGrUrUrArArArArUrArArGrGrCrUrArGrUrCrCrGrUrUrArUrCrAmAmCmUmUmGmAmAmAmAmAmGmUmGmGmCmAmCmCmGmAmGmUmCmGmGmUmGmCmU*mU*mU*mU
// result 56.37

// query # repeat for G000501: TTR sgRNA modified sequence, Human, SEQ ID No. 108; guide sequence of CR005300 (nucleic acid) guide: mU*mC*mA*rCrArGrArArArCrArCrUrCrArCrCrGrUrArGrUrUrUrUrArGrAmGmCmUmAmGmAmAmAmUmAmGmCrArArGrUrUrArArArArUrArArGrGrCrUrArGrUrCrCrGrUrUrArUrCrAmAmCmUmUmGmAmAmAmAmAmGmUmGmGmCmAmCmCmGmAmGmUmCmGmGmUmGmCmU*mU*mU*mU
// result 6.62

// query # repeat for G000571: TTR sgRNA modified sequence, Human, SEQ ID No. 112; guide sequence of CR005301 (nucleic acid) guide: mG*mU*mC*rArCrArGrArArArCrArCrUrCrArCrCrGrUrGrUrUrUrUrArGrAmGmCmUmAmGmAmAmAmUmAmGmCrArArGrUrUrArArArArUrArArGrGrCrUrArGrUrCrCrGrUrUrArUrCrAmAmCmUmUmGmAmAmAmAmAmGmUmGmGmCmAmCmCmGmAmGmUmCmGmGmUmGmCmU*mU*mU*mU
// result 6.13

// query # repeat for G000492: TTR sgRNA modified sequence, Human, SEQ ID No. 99; guide sequence of CR003342 (nucleic acid) guide: mC*mU*mU*rCrUrCrUrArCrArCrCrCrArGrGrGrCrArCrGrUrUrUrUrArGrAmGmCmUmAmGmAmAmAmUmAmGmCrArArGrUrUrArArArArUrArArGrGrCrUrArGrUrCrCrGrUrUrArUrCrAmAmCmUmUmGmAmAmAmAmAmGmUmGmGmCmAmCmCmGmAmGmUmCmGmGmUmGmCmU*mU*mU*mU
// result 2.22

// query # repeat for G000489: TTR sgRNA modified sequence, Human, SEQ ID No. 96; guide sequence of CR003344 (nucleic acid) guide: mU*mU*mU*rGrArCrCrArUrCrArGrArGrGrArCrArCrUrGrUrUrUrUrArGrAmGmCmUmAmGmAmAmAmUmAmGmCrArArGrUrUrArArArArUrArArGrGrCrUrArGrUrCrCrGrUrUrArUrCrAmAmCmUmUmGmAmAmAmAmAmGmUmGmGmCmAmCmCmGmAmGmUmCmGmGmUmGmCmU*mU*mU*mU
// result 10.28

// query # repeat for G000483: TTR sgRNA modified sequence, Human, SEQ ID No. 90; guide sequence of CR005298 (nucleic acid) guide: mU*mC*mC*rArCrUrCrArUrUrCrUrUrGrGrCrArGrGrArGrUrUrUrUrArGrAmGmCmUmAmGmAmAmAmUmAmGmCrArArGrUrUrArArArArUrArArGrGrCrUrArGrUrCrCrGrUrUrArUrCrAmAmCmUmUmGmAmAmAmAmAmGmUmGmGmCmAmCmCmGmAmGmUmCmGmGmUmGmCmU*mU*mU*mU
// result 23.85

// query # repeat for G000568: TTR sgRNA modified sequence, Human, SEQ ID No. 110; guide sequence of CR003391 (nucleic acid) guide: mG*mG*mC*rUrGrUrCrGrUrCrArCrCrArArUrCrCrCrArGrUrUrUrUrArGrAmGmCmUmAmGmAmAmAmUmAmGmCrArArGrUrUrArArArArUrArArGrGrCrUrArGrUrCrCrGrUrUrArUrCrAmAmCmUmUmGmAmAmAmAmAmGmUmGmGmCmAmCmCmGmAmGmUmCmGmGmUmGmCmU*mU*mU*mU
// result 0.80

// query # repeat for G000496: TTR sgRNA modified sequence, Human, SEQ ID No. 103; guide sequence of CR005304 (nucleic acid) guide: mG*mG*mC*rCrGrUrGrCrArUrGrUrGrUrUrCrArGrArArGrUrUrUrUrArGrAmGmCmUmAmGmAmAmAmUmAmGmCrArArGrUrUrArArArArUrArArGrGrCrUrArGrUrCrCrGrUrUrArUrCrAmAmCmUmUmGmAmAmAmAmAmGmUmGmGmCmAmCmCmGmAmGmUmCmGmGmUmGmCmU*mU*mU*mU
// result 52.25

// query # repeat for G000493: TTR sgRNA modified sequence, Human, SEQ ID No. 100; guide sequence of CR003368 (nucleic acid) guide: mA*mA*mG*rUrGrCrCrUrUrCrCrArGrUrArArGrArUrUrGrUrUrUrUrArGrAmGmCmUmAmGmAmAmAmUmAmGmCrArArGrUrUrArArArArUrArArGrGrCrUrArGrUrCrCrGrUrUrArUrCrAmAmCmUmUmGmAmAmAmAmAmGmUmGmGmCmAmCmCmGmAmGmUmCmGmGmUmGmCmU*mU*mU*mU
// result 0.97

// query # repeat for G000482: TTR sgRNA modified sequence, Human, SEQ ID No. 89; guide sequence of CR003365 (nucleic acid) guide: mU*mG*mU*rArGrArArGrGrGrArUrArUrArCrArArArGrGrUrUrUrUrArGrAmGmCmUmAmGmAmAmAmUmAmGmCrArArGrUrUrArArArArUrArArGrGrCrUrArGrUrCrCrGrUrUrArUrCrAmAmCmUmUmGmAmAmAmAmAmGmUmGmGmCmAmCmCmGmAmGmUmCmGmGmUmGmCmU*mU*mU*mU
// result 13.25
